Catalogue of TGI readings, one per entry.
- Test system: NCI-H226 lung
- PROTOCOL_SUMMARY: NCI tumour cell line growth inhibition, 48 h

MOLECULE: Cc1cc2nc3c(C(O)CO)nn(-c4ccccc4)c3nc2cc1C (configuration not stated)
TARGET_ENTITY: NCI-H226 lung
TGI: 98.2 µM
--
MOLECULE: CC1=NN(C(=O)CC(=O)Nc2cccc(Cl)c2)C(=O)C1N=Nc1ccc(S(=O)(=O)c2ccc(N=NC3C(=O)N(C(=O)CC(=O)Nc4cccc(Cl)c4)N=C3C)cc2)cc1 (configuration not stated)
TARGET_ENTITY: NCI-H226 lung
TGI: > 100 µM
--
MOLECULE: COc1ccc(/C=C2\CNC/C(=C\c3ccc(OC)cc3)C2=O)cc1
TARGET_ENTITY: NCI-H226 lung
TGI: > 100 µM
--
MOLECULE: COc1cc2cnc3c(c2cc1OC)Cc1cc2c(cc1-3)OCO2
TARGET_ENTITY: NCI-H226 lung
TGI: > 95.8 µM
--
MOLECULE: c1ccc2c(Cc3c[nH]c4ccccc34)c[nH]c2c1
TARGET_ENTITY: NCI-H226 lung
TGI: 22.5 µM
--
MOLECULE: COc1cc(/C=C/C(=O)O)ccc1O
TARGET_ENTITY: NCI-H226 lung
TGI: > 100 µM
--
MOLECULE: CCOC(=O)c1c(NC(=O)c2ccccc2)sc2c1CCC2
TARGET_ENTITY: NCI-H226 lung
TGI: > 100 µM
--
MOLECULE: O=C(Nc1ccc(Nc2ccncc2)cc1)c1ccc(Nc2ccnc3ccc([N+](=O)[O-])cc23)cc1
TARGET_ENTITY: NCI-H226 lung
TGI: > 100 µM
--
MOLECULE: Cc1ccc(C2=Nc3ccccc3NC(=O)C2)cc1
TARGET_ENTITY: NCI-H226 lung
TGI: > 100 µM
--
MOLECULE: O=C(/C(Cl)=C/c1ccccc1)c1ccccc1
TARGET_ENTITY: NCI-H226 lung
TGI: 18.1 µM
--
MOLECULE: CN(C)CCCNC(=O)CNC(=O)c1cc(NC(=O)c2cc(NC(=O)c3cc(NC(=O)CCNC(=O)c4cc(NC(=O)c5cc(NC(=O)c6nccn6C)cn5C)cn4C)cn3C)cn2C)cn1C
TARGET_ENTITY: NCI-H226 lung
TGI: > 100 µM
--
MOLECULE: O=C(CNC(=O)c1cccc2ccccc12)Nc1ccccc1Oc1ccccc1
TARGET_ENTITY: NCI-H226 lung
TGI: > 10 µM

---

Catalogue of TGI readings, one per entry.
- Tested on: NCI-H23 lung
- PROTOCOL_SUMMARY: NCI tumour cell line growth inhibition, 48 h
*1 amine or outer side, *2 acyl side, *3 side chain or, on linkers, in order; H or OH if unused. Where a SMILES comes first, the peptide text is derived from it. Bridges are numbered along the chain shown (N, C = ends). [ ]: non-standard residue; d: D form. The star is where a group is joined. Phe(3-Me) = Cc1cccc(C[C@H](N)C(=O)O)c1; NH(4-Cl-2-F-phenyl) = Fc1cc(Cl)ccc1N*; Pro(4R-Me) = C[C@H]1CN[C@H](C(=O)O)C1; Hyp = O=C(O)[C@@H]1C[C@@H](O)CN1; aThr = C[C@H](O)[C@H](N)C(=O)O; Pip = O=C(O)[C@@H]1CCCCN1; CO = O=C([*:1])[*:2]

COMPOUND: COc1ccc(CN=C2Nc3ccncc3S(=O)(=O)N2c2ccccc2)cc1
LIMIT_SIGN: >
TGI (µM): 100
//
COMPOUND: O=[N+]([O-])c1cc(Br)cc2c1[nH]c1ccc(Br)cc12
LIMIT_SIGN: >
TGI (µM): 100
//
COMPOUND: CCOC(=O)/C=C/[C@H](O[Si](c1ccccc1)(c1ccccc1)c1ccccc1)C(C)(C)C
LIMIT_SIGN: >
TGI (µM): 31.6
//
COMPOUND: CO/N=C1/C(n2[nH]c(=O)n(-c3ccccc3)c2=O)C2C=CC1n1c(=O)n(-c3ccccc3)c(=O)n12 (configuration not stated)
LIMIT_SIGN: >
TGI (µM): 100
//
COMPOUND: Cc1cccc(C[C@H](NC(=O)Nc2ccc(Cl)cc2F)C(=O)N[C@@H]2C(=O)N3C[C@H](O)C[C@H]3C(=O)N3CCCC[C@H]3C(=O)N[C@@H](C)C(=O)N3C[C@H](C)C[C@H]3C(=O)O[C@H]2C)c1 ({NH(4-Cl-2-F-phenyl)-CO}-[Phe(3-Me)][aThr][Hyp][Pip]A[Pro(4R-Me)]; ester 2-C)
LIMIT_SIGN: =
TGI (µM): 3.72
//
COMPOUND: C=C1C(=O)O[C@@H]2C[C@@H](C)[C@@H]3[C@@H](OC4OC(COC(C)=O)C(O)C(O)C4O)CC(=O)[C@@]3(C)C[C@H]12 (some centres not stated)
LIMIT_SIGN: =
TGI (µM): 25.7
//
COMPOUND: O=[N+]([O-])c1cccc2nc3ccccc3c(NCCNCCO)c12
LIMIT_SIGN: =
TGI (µM): 0.00448
